The following molecules are shown together with reported T½ values.
# ASSAY REMARKS: Determination of bio-accumulation: urinary clearance pharmacokinetic study in rats
# TEST SETTINGS: renal elimination half-life, 73 micro Moles per kg, oral gavage, urine by fluorine NMR, exponential curve fitting
Enter the number, and then the unit.

**Q:** Requested field: T½. Item: N.O=C(O)C(F)(F)C(F)(F)OC(F)(F)C(F)(F)F
**A:** 10 h

----------
# ASSAY REMARKS: Determination of bio-accumulation: urinary clearance pharmacokinetic study in rats
# TEST SETTINGS: recovery of administered amount in urine after 96 h, 73 micro Moles per kg, oral gavage
MEASURED ATTRIBUTE: % Recovery (96 h)

Some compounds with recorded % Recovery (96 h):
{"columns": ["COMPOUND", "% Recovery (96 h)"],
 "data": [
  ["N.O=C(O)C(F)OC(F)(F)C(F)(F)C(F)(F)OC(F)(F)F (stereo not drawn)", "95%"],
  ["N.O=C(O)C(F)(F)C(F)OC(F)(F)C(F)(F)C(F)(F)OC(F)(F)F (stereo not drawn)", "84%"],
  ["N.O=C(O)C(F)(F)OC(F)(F)OC(F)(F)F", "96%"],
  ["N.O=C(O)C(F)(F)C(F)OC(F)(F)C(F)(F)C(F)(F)F (stereo not drawn)", "94%"],
  ["N.O=C(O)C(F)(F)C(F)(F)OC(F)(F)C(F)(F)C(F)(F)F", "82%"],
  ["N.O=C(O)C(F)(F)C(F)(F)C(F)(F)C(F)(F)C(F)(F)OC(F)C(F)(F)F (stereo not drawn)", "32%"]
]}

**Q:** Requested field: % Recovery (96 h). Item: N.O=C(O)C(F)(F)OC(F)(F)C(F)(F)C(F)(F)OC(F)(F)F [Compound 1, CF3—O—(CF2)3—O—CF2—COONH4]
**A:** 73%

**Q:** And for N.O=C(O)C(F)(F)C(F)(F)OC(F)(F)F ?
**A:** 100%

**Q:** And for N.O=C(O)C(F)(F)C(F)(F)OC(F)(F)C(F)(F)C(F)(F)C(F)(F)F ?
**A:** 42%

----------
# ASSAY REMARKS: Determination of bio-accumulation: urinary clearance pharmacokinetic study in rats
# TEST SETTINGS: renal elimination half-life, 73 micro Moles per kg, oral gavage, urine by fluorine NMR, exponential curve fitting
MEASURED ATTRIBUTE: T½ (h)
The figure you give is taken to be in h; do not add the unit.

Some molecules with recorded T½:
{"columns": ["MOLECULE", "T½ [h]"],
 "data": [
  ["N.O=C(O)C(F)(F)OC(F)(F)OC(F)(F)F", 12],
  ["N.O=C(O)C(F)(F)C(F)(F)OC(F)(F)C(F)(F)C(F)(F)F", 12],
  ["N.O=C(O)C(F)OC(F)(F)C(F)(F)C(F)(F)OC(F)(F)F (centres unmarked)", 11]
]}

**Q:** Requested field: T½. Item: N.O=C(O)C(F)(F)C(F)(F)C(F)(F)C(F)(F)C(F)(F)OC(F)C(F)(F)F (centres unmarked)
**A:** 24

**Q:** And for N.O=C(O)C(F)(F)C(F)(F)OC(F)(F)C(F)(F)C(F)(F)C(F)(F)F ?
**A:** 31

----------
# ASSAY REMARKS: Determination of bio-accumulation: urinary clearance pharmacokinetic study in rats
# TEST SETTINGS: recovery of administered amount in urine after 96 h, 73 micro Moles per kg, oral gavage
MEASURED ATTRIBUTE: % Recovery (96 h) (%)
The figure you give is taken to be in %; do not add the unit.

Some compounds with recorded % Recovery (96 h):
{"columns": ["COMPOUND", "MEASURED ATTRIBUTE", "MEASUREMENT"],
 "data": [
  ["N.O=C(O)C(F)(F)C(F)(F)C(F)(F)OC(F)C(F)(F)F (stereo not drawn) [Compound 15, CF3—CFH—O—(CF2)3—COONH4]", "% Recovery (96 h)", 95],
  ["N.O=C(O)C(F)(F)OC(F)(F)C(F)(F)C(F)(F)OC(F)(F)F [Compound 4, CF3—(OCF2)3—OCF2—COONH4]", "% Recovery (96 h)", 50]
]}

**Q:** Requested field: % Recovery (96 h). Item: N.O=C(O)C(F)(F)OC(F)(F)C(F)(OC(F)(F)C(F)(F)C(F)(F)F)C(F)(F)F (stereo not drawn) [Compound C-3, CF3CF2CF2OCF(CF3)CF2OCF2COONH4, reference compound]
**A:** 5

**Q:** And for N.O=C(O)C(F)(F)OC(F)(F)OC(F)(F)OC(F)(F)F [Compound 3, CF3—OCF2—OCF2—OCF2—COONH4] ?
**A:** 100

**Q:** And for N.O=C(O)C(F)(F)C(F)(F)OC(F)(F)C(F)(F)F [Compound 7, C2F5—O—CF2—CF2—COONH4] ?
**A:** 100

**Q:** And for N.O=C(O)C(F)(F)C(F)(F)C(F)(F)C(F)(F)C(F)(F)C(F)(F)C(F)(F)F [Compound C-1, C7F15COONH4, reference compound] ?
**A:** 6

Source of measurements: patent US7795332B2
